- Test Details: Acid dissociation constant was measured in experiment 3
- Type: ADME
- Setup Conditions: read-out: pKa3
Hi there, I'd appreciate the recorded pKa for every entry that follows.
Respond numerically, and do not add a unit to the figure.

Input: Look up pKa: COC(=O)C12CN(C)CC(C(=O)OC)(C1=O)C(c1ccccn1)N(C)C2c1ccccn1 (configuration not stated)
Output: 3.47

Input: Dear colleague, I am looking for the recorded pKa of the following molecule: COC(=O)C12CN(C)CC(C(=O)OC)(C1=O)C(c1cccc(O)c1)N(C)C2c1cccc(O)c1 (configuration not stated)
Output: 9.12

====

- Test Details: Acid dissociation constant was measured in experiment 2
- Type: ADME
- Setup Conditions: read-out: pKa2
I'd be grateful if you could share measured pKa for these entries.
Keep the answer to the number alone.

Input: So what's the measured pKa for this one? COC(=O)C12CN(C)CC(C(=O)OC)(C1=O)C(c1cccc(O)c1)N(C)C2c1cccc(O)c1 (centres undefined)
Output: 7.97

Input: pKa for COC(=O)C12CN(C)CC(C(=O)OC)(C1=O)C(c1ccc(OC)cc1)N(C)C2c1ccc(OC)cc1 (centres undefined) ?
Output: 5.51

Input: Entry COC(=O)C12CN(C)CC(C(=O)OC)(C1=O)C(c1cccc(Cl)c1)N(C)C2c1cccc(Cl)c1 (centres undefined) has what pKa?
Output: 9.51

Input: Could you tell me which pKa is on file for COC(=O)C12CN(C)CC(C(=O)OC)(C1=O)C(c1cccc(F)c1)N(C)C2c1cccc(F)c1 (centres undefined) ?
Output: 10.7
